// provenance: paper PMC7826789

Recorded measurements of Percent Control, one per entry
# Tested on: BRAF
# measurement-conditions: Compound Concentration (nM):1000;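 note: KINOMEscan scanMAX binding as percent activity remaining versus control; lower means stronger binding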
Use % as the unit, but write only the number.

Recorded results for 7 compounds are shown here.
Percent Control for `NS(=O)(=O)c1ccc(N/N=C2\C(=O)Nc3ccc(-c4cnco4)cc32)cc1` ?
86

Entry under review: C[C@@H](Oc1cc(-n2cnc3ccc(OC4CCN(C)CC4)cc32)sc1C(N)=O)c1ccccc1Cl [GSK579289A] . Reported Percent Control?
95

What value of Percent Control has been recorded for this entry: CC1=C(C(=O)Nc2ccc3[nH]ncc3c2)C(c2ccc3ccccc3c2)CC(=O)N1 (centres unmarked) [GSK270822A]
100

Consider the compound shown here: COc1ccc2c(-c3ccnc(Nc4cccc(OC(F)(F)F)c4)n3)cnn2n1 [GW810372X] What is its recorded Percent Control?
100

Consider the compound COc1cc(N2CCN(C(C)C)CC2)ccc1Nc1nc(Nc2ccc(F)cc2C(=O)NC[C@@H](O)CO)c2cc[nH]c2n1 [GSK1392956A] and give its measured Percent Control.
94

Which value of Percent Control has been reported for COc1cc2ncn(-c3cc(O[C@H](C)c4ccccc4Cl)c(C(N)=O)s3)c2cc1OC [GSK237701A] in the records?
100

So what does the record say about Percent Control for COc1cc(C=NNc2ncnc3c2cnn3-c2ccccc2)ccc1O [GW513184X] ?
77

With those in mind, consider the next compound.
Dear colleague, I am looking for the recorded Percent Control of the following compound: Cl.O=C(Nc1ccc(Oc2ccc3[nH]c(NC(=O)c4ccco4)nc3c2)cc1)Nc1cc(C(F)(F)F)ccc1F [GW683134A]
32

* * *

Quick reference for Percent Control among some compounds
# Tested on: STK16
# measurement-conditions: Compound Concentration (nM):1000
Give a bare numeral; the unit % is implied.

Study these solved cases before continuing.
For the compound shown here, CCS(=O)(=O)c1ccc(OC)c(Nc2ncc(-c3cccc(OC)c3)o2)c1 [GW580509X] , give the reported Percent Control.
37

Field request: Percent Control | item: `CCc1ccc(Oc2nccc(-c3c(-c4ccc(F)cc4)ncn3C3CCNCC3)n2)cc1`
89

Tell me the measured Percent Control of Cl.c1ccc(Cc2nc3ccc(Nc4ncnc5ccccc45)cc3[nH]2)cc1 [GR269666A] , please.
100

--- query ---
Which Percent Control value belongs to COc1cc2ncnc(Nc3ccc4c(cnn4Cc4ccccc4)c3)c2cc1OC.Cl [GW282449A] ?
100

* * *

# Tested on: PRKD3
# measurement-conditions: Compound Concentration (nM):1000
This section presents compounds with their documented Percent Control values.
Give a bare numeral; the unit % is implied.

// known answers, use as guide
Which Percent Control is listed for COc1cc(N2CCN(C(C)C)CC2)ccc1Nc1nc(Nc2ccc(F)cc2C(=O)NC[C@@H](O)CO)c2cc[nH]c2n1 [GSK1392956A] ?
49

Given the compound COc1ccc2c(-c3ccnc(Nc4cccc(OC(F)(F)F)c4)n3)cnn2n1 [GW810372X] , what is its reported Percent Control?
100

Item COc1cc2ncnc(Nc3ccc4c(cnn4Cc4ccccc4)c3)c2cc1OC.Cl [GW282449A] has what recorded Percent Control?
98

Data request, read-out Percent Control, for NS(=O)(=O)c1ccc(N/N=C2\C(=O)Nc3ccc(C(=O)NCc4ccncc4)cc32)cc1 [GW300657X]
85

Entry under review: `CCn1c(-c2nonc2N)nc2c(C#CC(C)(C)O)nc(OCCNC)cc21.Cl` . Reported Percent Control?
88

State the recorded Percent Control for this entry: `COc1ccc2cc(-c3c(-c4ccncc4)nc(-c4ccc(S(C)(=O)=O)cc4C)n3C)ccc2c1`
29

Others:
Using the record for NS(=O)(=O)c1ccc(N/N=C2\C(=O)Nc3ccc(Cl)cc32)cc1 [GW280670X] , report its Percent Control.
100

State the recorded Percent Control for this entry: `O=C(Nc1n[nH]c2nc(-c3ccc(O)cc3)c(Br)cc12)C1CC1`
99

What value of Percent Control has been recorded for this entry: CN1CCN(C(=O)c2ccc(NC(=O)Nc3ccc(N(C)c4ccnc(Nc5ccc(CS(C)(=O)=O)cc5)n4)cc3)cc2)CC1.Cl [GW830263A]
100

Any idea what its Percent Control is? The compound is COc1ccccc1-c1cc(/C=C2\C(=O)Nc3ncc(Br)cc32)cc(Br)c1O [GW442130X]
100

Consider the compound `CCc1ccc(Oc2nccc(-c3c(-c4ccc(F)cc4)ncn3C3CCNCC3)n2)cc1` and give its measured Percent Control.
70

Given the compound C/C(Nc1ccc(S(N)(=O)=O)cc1)=C1/C(=O)Nc2ccccc21 [GW335962X] , what is its reported Percent Control?
86

* * *

# System: DYRK2
# measurement-conditions: Compound Concentration (nM):1000
endpoint: Percent Control (%)
Output spec: scalar in %, unitless text.

Illustrative cases are given below, each with its answer.
I have this compound here, COc1cc(C=NNc2ncnc3c2cnn3-c2ccccc2)ccc1O [GW513184X] , and I need its recorded Percent Control.
28

Requested field: Percent Control. Item: CN1CCN(C(=O)c2ccc(NC(=O)Nc3ccc(N(C)c4ccnc(Nc5ccc(CS(C)(=O)=O)cc5)n4)cc3)cc2)CC1.Cl [GW830263A]
75

Quick check: Percent Control of COc1cc2ncnc(Nc3ccc4c(cnn4Cc4ccccc4)c3)c2cc1OC.Cl [GW282449A] ?
87

Next compound, Percent Control to be filled in.
What value of measured Percent Control is listed for COc1cccc(-c2c[nH]c3c(N/N=C/c4ccncc4)ncnc23)c1 [GW814408X] ?
8.3

* * *

# Test system: IKK-beta
# Construct: gene IKBKB
# measurement-conditions: Compound Concentration (nM):1000
This listing pairs compounds with measured Percent Control.
Give just the numeric value; % need not be written.

The cases that follow already have their Percent Control on record.
Param readout= Percent Control; system= IKK-beta; entry= NS(=O)(=O)c1ccc(Nc2ncc(-c3ccccc3)o2)cc1 [GW572399X] ; returns value.
100

Lab note: need Percent Control with IKK-beta for entry Cc1cc(O)cc(C)c1/C=C/c1cncc(C(N)=O)c1 [GW435821X] , please look it up.
100

Requested read-out Percent Control, target or system IKK-beta, entry COc1ccccc1-c1cc(/C=C2\C(=O)Nc3ncc(Br)cc32)cc(Br)c1O [GW442130X]
100

***
Checklist item: Percent Control tested on IKK-beta, entry COc1cc2ncn(-c3cc(O[C@H](C)c4ccccc4Cl)c(C(N)=O)s3)c2cc1OC [GSK237701A] , value?
92

Request: Percent Control, test system IKK-beta, entry CC1=C(C(=O)Nc2ccc3[nH]ncc3c2)C(c2ccc3ccccc3c2)CC(=O)N1 (stereo not drawn) [GSK270822A]
72

# returns recorded Percent Control (system: IKK-beta) for COc1cccc(-c2c[nH]c3c(N/N=C/c4ccncc4)ncnc23)c1 [GW814408X]
100

Any idea what Percent Control came out for Cl.O=S1CCN(Cc2ccc(-c3ccc4ncnc(Nc5ccc(OCc6ccccc6)c(F)c5)c4c3)o2)CC1 [GW576924A] on IKK-beta?
94

// fetch IKK-beta Percent Control for Cl.O=C(Nc1ccc(Oc2ccc3[nH]c(NC(=O)c4ccco4)nc3c2)cc1)Nc1cc(C(F)(F)F)ccc1F [GW683134A]
88

* * *

# Percent Control per record follows
# Tested on: CAMK4
# measurement-conditions: Compound Concentration (nM):1000
Note: unit % is implicit; provide only the numeric part.

Use these answered entries as a reference point.
Quick one: Percent Control of Cl.O=C(Nc1ccc(Oc2ccc3[nH]c(NC(=O)c4ccco4)nc3c2)cc1)Nc1cc(C(F)(F)F)ccc1F [GW683134A] ?
90

# query: Percent Control of entry C/C(Nc1ccc(S(N)(=O)=O)cc1)=C1/C(=O)Nc2ccccc21 [GW335962X]
100

Look up Percent Control for this compound: `CCn1c(-c2nonc2N)nc2c(C#CC(C)(C)O)nc(OCCNC)cc21.Cl`
100

Let us examine a further case.
Given COc1cc2ncn(-c3cc(O[C@H](C)c4ccccc4Cl)c(C(N)=O)s3)c2cc1OC [GSK237701A] , state its recorded Percent Control.
100

* * *

# Tested on: LATS1
# measurement-conditions: Compound Concentration (nM):1000
endpoint: Percent Control

Consider the following illustrative entries.
So what does the record say about Percent Control for Cl.c1ccc(Cc2nc3ccc(Nc4ncnc5ccccc45)cc3[nH]2)cc1 [GR269666A] ?
100%

Requested field: Percent Control. Item: O=C(Nc1n[nH]c2nc(-c3ccc(O)cc3)c(Br)cc12)C1CC1 [SB-725317]
100%

Fill blank: measured Percent Control of the compound Cl.O=S1CCN(Cc2ccc(-c3ccc4ncnc(Nc5ccc(OCc6ccccc6)c(F)c5)c4c3)o2)CC1 [GW576924A] is ____.
100%

***
Which Percent Control is reported for this compound? C[C@@H](Oc1cc(-n2cnc3ccc(OC4CCN(C)CC4)cc32)sc1C(N)=O)c1ccccc1Cl [GSK579289A]
100%

I'd like to know its Percent Control. The compound in question is COc1cccc(-c2c[nH]c3c(N/N=C/c4ccncc4)ncnc23)c1 [GW814408X]
100%

# Percent Control lookup, item CCn1c(-c2nonc2N)nc2c(C#CC(C)(C)O)nc(OCCNC)cc21.Cl [GSK949675]
65%

State the recorded Percent Control for this entry: CC1=C(C(=O)Nc2ccc3[nH]ncc3c2)C(c2ccc3ccccc3c2)CC(=O)N1 (centres unmarked) [GSK270822A]
66%

Consider the compound COc1cc2ncn(-c3cc(O[C@H](C)c4ccccc4Cl)c(C(N)=O)s3)c2cc1OC [GSK237701A] and give its measured Percent Control.
99%
